# Tested on: PL45 (pancreatic cancer cells)
# PROCEDURE DETAILS: Anti-proliferation activity against PL45 cells
# Format: cell-based
# CONDITION LABEL: Table 3, n = 3
MEASURED METRIC: pIC50
Quick note: pIC50 means taking -log10 of the concentration in moles per liter.

1. CO[C@@H]1[C@@H](O)[C@@H](O)[C@H](Oc2ccc3cc(NC(=O)/C=C/c4ccccc4)c(=O)oc3c2C)OC1(C)C [compound 25]
5.52

Reported pIC50 of CO[C@@H]1[C@@H](O)[C@@H](O)[C@H](Oc2ccc3cc(NC(=O)Cc4ccccc4)c(=O)oc3c2C)OC1(C)C [compound 22] : 5.07

Record CO[C@@H]1[C@@H](O)[C@@H](O)[C@H](Oc2ccc3cc(NC(=O)CCc4ccccc4)c(=O)oc3c2C)OC1(C)C [compound 23] , field pIC50: 5.01

The molecule CO[C@@H]1[C@@H](O)[C@@H](O)[C@H](Oc2ccc3cc(NC(=O)OCc4ccccc4)c(=O)oc3c2C)OC1(C)C [compound 24] showed pIC50 equal to 4.94

###

# System: SkBr3 (Her2 overexpressing breast cancer cells)
# PROCEDURE DETAILS: Anti-proliferation activity against SkBr3 cells (MTS/PMS)
# Type: cell-based
# CONDITION LABEL: Homo sapiens, SK-BR-3; Table 11, azasugar analogues on 8-methoxy coumarin; 72 hours; read-out: IC50 SKBr3
MEASURED METRIC: pIC50
Hey, just a heads up that pIC50 is the negative log base 10 of the concentration in molar.

Entry COc1cccc(-c2cc(C(=O)Nc3cc4ccc(OC5CCN(C)CC5)c(OC)c4oc3=O)ccc2OC)c1 [KU-275] : pIC50 on SkBr3 (Her2 overexpressing breast cancer cells) = 6.01

###

# Test system: PL45 (pancreatic cancer cells)
# PROCEDURE DETAILS: Anti-proliferation activity against PL45 cells
# Format: cell-based
# CONDITION LABEL: Table 4, biaryl analogues, n = 3
pIC50 values by entry
Please report pIC50 as the negative decimal logarithm of the molar concentration, giving only the number.

Some solved entries appear below for comparison.
1) COc1ccc(C(=O)Nc2cc3ccc(O[C@@H]4OC(C)(C)[C@H](OC)[C@@H](O)[C@H]4O)c(C)c3oc2=O)cc1-c1ccccc1C [compound 29]
5.17
2) COc1ccc(C(=O)Nc2cc3ccc(O[C@@H]4OC(C)(C)[C@H](OC)[C@@H](O)[C@H]4O)c(C)c3oc2=O)cc1-c1ccccc1O [compound 35]
5.85
3) COc1ccc(C(=O)Nc2cc3ccc(O[C@@H]4OC(C)(C)[C@H](OC)[C@@H](O)[C@H]4O)c(C)c3oc2=O)cc1-c1cccc(C)c1 [compound 30]
5.38

Record COc1ccccc1-c1cc(C(=O)Nc2cc3ccc(O[C@@H]4OC(C)(C)[C@H](OC)[C@@H](O)[C@H]4O)c(C)c3oc2=O)ccc1OC [compound 32] . Reported pIC50: 5.42

The reported value for COc1ccc(C(=O)Nc2cc3ccc(O[C@@H]4OC(C)(C)[C@H](OC)[C@@H](O)[C@H]4O)c(C)c3oc2=O)cc1-c1ccc(O)cc1 [compound 37] in terms of pIC50 is 5.72

response.value for COc1ccc(C(=O)Nc2cc3ccc(O[C@@H]4OC(C)(C)[C@H](OC)[C@@H](O)[C@H]4O)c(C)c3oc2=O)cc1-c1ccccc1 [compound 28] (field: pIC50) = 5.55

The value of pIC50 measured for the compound COc1ccc(-c2cc(C(=O)Nc3cc4ccc(O[C@@H]5OC(C)(C)[C@H](OC)[C@@H](O)[C@H]5O)c(C)c4oc3=O)ccc2OC)cc1 [compound 34] turned out to be 5.59
